target: HsCDK2/cyclin A (Homo sapiens); assay: Radiometric Flashplate potency assay, HsCDK2/cyclin A; conditions: average of two or more experiments; 1 μM ATP
endpoint name: IC50

[
  {
    "molecule": "CO[C@H]1CC[C@H](NC(=O)c2n[nH]cc2NC(=O)c2ccccc2Nc2cccc(C)c2C)CC1 [Compound 4l]",
    "measured value": "> 10 µM"
  }
]

Would you kindly look at the next entry?
For the molecule shown here, CO[C@H]1CC[C@H](NC(=O)c2n[nH]cc2NC(=O)c2ccccc2Nc2ccccc2)CC1 [Compound 4k] , give the reported IC50.
> 10 µM

These data points were gathered from paper PMC4175002.
